assayed_system: T1, TNFR1 (Homo sapiens, UniProt P19438)
T1 chain: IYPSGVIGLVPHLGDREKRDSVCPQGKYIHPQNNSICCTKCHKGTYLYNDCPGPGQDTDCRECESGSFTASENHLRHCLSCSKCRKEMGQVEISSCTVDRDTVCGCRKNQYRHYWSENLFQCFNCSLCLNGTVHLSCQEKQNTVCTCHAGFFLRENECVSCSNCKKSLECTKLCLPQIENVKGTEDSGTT
test_description: yeast display SC50
// label = True if apparent Kd (screen) is not less than 0.6 nM, otherwise False

INSERT INTO results (binder, label_value) VALUES
  ('E95Q (designed binder) MTLQELLREEALRRAEAEAFRYALELLAEKFPEQKEYLLDLAEEIESQIRSLSGVDVEDVRKFLDKEWAWVKELLAEHPAELAEVEAARAARLAQLRAEVEAKVAA', 'False'),
  ('A11P (designed binder) MTLQELLREEPLRRAEAEAFRYALELLAEKFPEQKEYLLDLAEEIESQIRSLSGVDVEDVRKFLDKEWAWVKELLAEHPAELAEVEAARAARLAELRAEVEAKVAA', 'True'),
  ('E43N (designed binder) MTLQELLREEALRRAEAEAFRYALELLAEKFPEQKEYLLDLANEIESQIRSLSGVDVEDVRKFLDKEWAWVKELLAEHPAELAEVEAARAARLAELRAEVEAKVAA', 'False'),
  ('L38I (designed binder) MTLQELLREEALRRAEAEAFRYALELLAEKFPEQKEYILDLAEEIESQIRSLSGVDVEDVRKFLDKEWAWVKELLAEHPAELAEVEAARAARLAELRAEVEAKVAA', 'False'),
  ('Q34V (designed binder) MTLQELLREEALRRAEAEAFRYALELLAEKFPEVKEYLLDLAEEIESQIRSLSGVDVEDVRKFLDKEWAWVKELLAEHPAELAEVEAARAARLAELRAEVEAKVAA', 'False'),
  ('A105F (designed binder) MTLQELLREEALRRAEAEAFRYALELLAEKFPEQKEYLLDLAEEIESQIRSLSGVDVEDVRKFLDKEWAWVKELLAEHPAELAEVEAARAARLAELRAEVEAKVFA', 'True'),
  ('W70K (designed binder) MTLQELLREEALRRAEAEAFRYALELLAEKFPEQKEYLLDLAEEIESQIRSLSGVDVEDVRKFLDKEWAKVKELLAEHPAELAEVEAARAARLAELRAEVEAKVAA', 'True'),
  ('R61K (designed binder) MTLQELLREEALRRAEAEAFRYALELLAEKFPEQKEYLLDLAEEIESQIRSLSGVDVEDVKKFLDKEWAWVKELLAEHPAELAEVEAARAARLAELRAEVEAKVAA', 'False'),
  ('E73P (designed binder) MTLQELLREEALRRAEAEAFRYALELLAEKFPEQKEYLLDLAEEIESQIRSLSGVDVEDVRKFLDKEWAWVKPLLAEHPAELAEVEAARAARLAELRAEVEAKVAA', 'True'),
  ('E95H (designed binder) MTLQELLREEALRRAEAEAFRYALELLAEKFPEQKEYLLDLAEEIESQIRSLSGVDVEDVRKFLDKEWAWVKELLAEHPAELAEVEAARAARLAHLRAEVEAKVAA', 'True'),
  ('L93P (designed binder) MTLQELLREEALRRAEAEAFRYALELLAEKFPEQKEYLLDLAEEIESQIRSLSGVDVEDVRKFLDKEWAWVKELLAEHPAELAEVEAARAARPAELRAEVEAKVAA', 'True'),
  ('K35A (designed binder) MTLQELLREEALRRAEAEAFRYALELLAEKFPEQAEYLLDLAEEIESQIRSLSGVDVEDVRKFLDKEWAWVKELLAEHPAELAEVEAARAARLAELRAEVEAKVAA', 'True'),
  ('A11N (designed binder) MTLQELLREENLRRAEAEAFRYALELLAEKFPEQKEYLLDLAEEIESQIRSLSGVDVEDVRKFLDKEWAWVKELLAEHPAELAEVEAARAARLAELRAEVEAKVAA', 'False'),
  ('Q4K (designed binder) MTLKELLREEALRRAEAEAFRYALELLAEKFPEQKEYLLDLAEEIESQIRSLSGVDVEDVRKFLDKEWAWVKELLAEHPAELAEVEAARAARLAELRAEVEAKVAA', 'False');
